# IC50 per entry for SIK1 (SEQ ID NO: 10) (Homo sapiens, UniProt P57059)

Problem: Item "COc1ccccc1-c1c[nH]c2nccc(-c3ccsc3)c12" has what recorded IC50?
Solution: > 100 nM

Problem: Item "FC1(F)Oc2cccc(-c3c[nH]c4ncc(-c5csc(N6CCOCC6)n5)cc34)c2O1" has what recorded IC50?
Solution: > 100 nM

---

- measurement_target: SIK2 (QIK) (SEQ ID NO: 11) (Homo sapiens, UniProt Q9H0K1)
- Sequence (Q9H0K1 whole entry): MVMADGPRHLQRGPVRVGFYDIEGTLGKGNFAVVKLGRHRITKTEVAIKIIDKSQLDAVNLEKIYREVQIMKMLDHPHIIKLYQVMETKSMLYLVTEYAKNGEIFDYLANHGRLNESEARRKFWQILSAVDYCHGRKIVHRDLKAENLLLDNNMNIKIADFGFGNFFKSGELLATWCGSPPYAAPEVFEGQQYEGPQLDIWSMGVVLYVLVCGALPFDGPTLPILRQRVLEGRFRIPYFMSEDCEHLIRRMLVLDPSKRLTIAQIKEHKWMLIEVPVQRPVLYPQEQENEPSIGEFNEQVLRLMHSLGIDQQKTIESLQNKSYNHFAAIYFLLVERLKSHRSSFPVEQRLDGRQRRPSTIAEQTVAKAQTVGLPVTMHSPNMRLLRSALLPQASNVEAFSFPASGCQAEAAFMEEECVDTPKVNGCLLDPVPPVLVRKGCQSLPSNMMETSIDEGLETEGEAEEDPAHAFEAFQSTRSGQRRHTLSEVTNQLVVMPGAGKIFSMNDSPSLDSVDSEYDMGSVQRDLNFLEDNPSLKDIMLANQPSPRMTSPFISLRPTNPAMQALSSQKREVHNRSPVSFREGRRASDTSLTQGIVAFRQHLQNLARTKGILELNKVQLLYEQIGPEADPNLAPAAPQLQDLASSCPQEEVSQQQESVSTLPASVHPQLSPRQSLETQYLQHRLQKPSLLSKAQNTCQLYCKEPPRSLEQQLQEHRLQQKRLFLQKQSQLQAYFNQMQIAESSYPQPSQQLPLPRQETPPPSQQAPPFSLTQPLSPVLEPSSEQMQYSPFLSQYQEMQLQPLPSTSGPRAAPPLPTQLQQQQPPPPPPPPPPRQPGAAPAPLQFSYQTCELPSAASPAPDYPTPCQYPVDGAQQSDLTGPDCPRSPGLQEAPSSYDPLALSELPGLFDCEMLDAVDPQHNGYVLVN
- experimental_details: SIK2 kinase assay (radiometric, 10 μM ATP)
- Assay type: biochemical
- experimental_setup: read-out: SIK2 (QIK) (SEQ ID NO: 11) kinase inhibition result
pIC50: −log10 of the molar value.
experimental_readout: pIC50

OCCN1CCC(n2cc(-c3cnc4[nH]cc(-c5ccc6c(c5)OC(F)(F)O6)c4c3)cn2)CC1 | > 7.00
COc1c(F)cccc1-c1c[nH]c2ncc(-c3cccc(S(=O)(=O)N4CCCC4)c3)cc12 | > 7.00

Let us examine a further case.
Problem: Item "c1cc(-c2ccsc2)c2cc[nH]c2n1" has what recorded pIC50?
Solution: < 6.00

---

# IC50 per entry for SIK1 (SEQ ID NO: 10) (Homo sapiens, UniProt P57059)

CS(=O)(=O)N1CCN(c2cnn(-c3cnc4[nH]cc(-c5ccc6c(c5)OC(F)(F)O6)c4c3)c2)CC1 | > 0.1 µM
COc1c(F)cc(F)cc1-c1c[nH]c2ncc(-c3cnn(S(=O)(=O)N4CCN(C)CC4)c3)cc12 | > 0.1 µM
COc1c(F)cccc1-c1c[nH]c2ncc(-c3ccsc3)cc12 | > 1 µM

Problem: Item "COc1c(F)cccc1-c1c[nH]c2ncc(-c3csc(N4CCOCC4)n3)cc12" has what recorded IC50?
Solution: > 0.1 µM

---

- measurement_target: SIK2 (QIK) (SEQ ID NO: 11) (Homo sapiens, UniProt Q9H0K1)
- experimental_details: SIK2 kinase assay (radiometric, 10 μM ATP)
- Type: biochemical
- experimental_setup: read-out: SIK2 (QIK) (SEQ ID NO: 11) kinase inhibition result
experimental_readout: IC50

FC1(F)Oc2cccc(-c3c[nH]c4ncc(-c5cnn(C6CCNCC6)c5)cc34)c2O1 | < 100 nM
COc1ccccc1-c1c[nH]c2ncc(-c3ccc(C)o3)cc12 | < 100 nM
COc1c(F)cc(F)cc1-c1c[nH]c2ncc(-c3ccc(CN4CCCC4)s3)cc12 | < 100 nM
O=S(=O)(c1ccc(-c2c[nH]c3nccc(-c4ccsc4)c23)cc1)N1CCCC1 | > 1000 nM
Oc1c(F)cc(F)cc1-c1c[nH]c2ncc(-c3ccsc3)cc12 | > 100 nM

Let us examine a further case.
Problem: Item "Oc1ccccc1-c1c[nH]c2ncc(-c3ccsc3)cc12" has what recorded IC50?
Solution: > 100 nM

---

# pIC50 per entry for SIK1 (SEQ ID NO: 10) (Homo sapiens)
pIC50: −log10 of the molar value.

Examples with answers:
COc1c(F)cc(F)cc1-c1c[nH]c2ncc(-c3cnn(C4CCN(CCO)CC4)c3)cc12 | < 7.00
OCCN1CCC(n2cc(-c3cnc4[nH]cc(-c5ccc6c(c5)OC(F)(F)O6)c4c3)cn2)CC1 | < 7.00
COc1ccc(-c2n[nH]c3nccc(-c4ccsc4)c23)c(OC)c1 | < 6.00

Problem: Please tell me: pIC50 of "CCCS(=O)(=O)N1CCC(n2cc(-c3cnc4[nH]cc(-c5ccc6c(c5)OC(F)(F)O6)c4c3)cn2)CC1" , system SIK1 (SEQ ID NO: 10) (Homo sapiens)?
Solution: < 6.00

---

This section presents molecules with their documented pIC50 values.
- measurement_target: SIK2 (QIK) (SEQ ID NO: 11) (Homo sapiens)
- experimental_details: SIK2 kinase assay (radiometric, 10 μM ATP)
- Assay type: biochemical
- experimental_setup: read-out: SIK2 (QIK) (SEQ ID NO: 11) kinase inhibition result
pIC50: −log10 of the molar value.

Problem: Item Cc1ncc(-c2cnc3[nH]cc(-c4cccc(F)c4Cl)c3c2)s1 [Example 137] has what recorded pIC50?
Solution: < 7.00

Problem: Item Fc1ccccc1-c1c[nH]c2nccc(-c3ccsc3)c12 [Example 22] has what recorded pIC50?
Solution: < 6.00

---

- measurement_target: SIK2 (QIK) (SEQ ID NO: 11) (Homo sapiens)
- experimental_details: SIK2 kinase assay (radiometric, 10 μM ATP)
- Format: biochemical
- experimental_setup: read-out: SIK2 (QIK) (SEQ ID NO: 11) kinase inhibition result
pIC50: −log10 of the molar value.
experimental_readout: pIC50

COc1ccc(-c2n[nH]c3nccc(-c4ccsc4)c23)cc1 | < 7.00
O=C(c1c(F)cccc1F)c1c[nH]c2ncc(-c3cnc(N4CCOCC4)s3)cc12 | > 7.00
FC1(F)Oc2cccc(-c3c[nH]c4ncc(-c5csc(N6CCOCC6)n5)cc34)c2O1 | > 7.00
O=C(c1c(F)cccc1F)c1c[nH]c2ncc(-c3cnn(C4CCNCC4)c3)cc12 | > 7.00
COc1cc(Cl)ccc1-c1c[nH]c2nccc(-c3ccsc3)c12 | < 7.00

Let us examine a further case.
Problem: Please tell me: pIC50 of "CCCS(=O)(=O)N1CCC(n2cc(-c3cnc4[nH]cc(-c5ccc6c(c5)OC(F)(F)O6)c4c3)cn2)CC1" , system SIK2 (QIK) (SEQ ID NO: 11) (Homo sapiens)?
Solution: < 6.00
